# Test system: Enterococcus faecalis 848 (VRE, Van A)
# methodDescription: MIC, broth microdilution, EFc 848
# Assay type: cell-based
# setupConditions: Table 1; VRE, Van A; class symbols; read-out: MIC E FC 848
measuredQuantity: MIC

Illustrative cases are given below, each with its answer.
CCCCOc1ccc(S(=O)(=O)NC(=O)C[C@@H]2NC(=O)[C@H](NC(=O)[C@@H](CC(C)C)NC)[C@H](O)c3ccc(c(Cl)c3)Oc3cc4cc(c3O[C@@H]3O[C@H](CO)[C@@H](O)[C@H](O)[C@H]3O)Oc3ccc(cc3Cl)[C@@H](O)[C@@H]3NC(=O)[C@H](NC(=O)[C@@H]4NC2=O)c2ccc(O)c(c2)-c2c(O)cc(O)cc2[C@@H](C(=O)NC2C4CC5CC(C4)CC2C5)NC3=O)cc1 (stereo partly drawn): 2 to 4 µg/mL
CCCCCCCCC(=O)NC(=O)C[C@@H]1NC(=O)[C@H](NC(=O)[C@@H](CC(C)C)NC)[C@H](O)c2ccc(c(Cl)c2)Oc2cc3cc(c2O[C@@H]2O[C@H](CO)[C@@H](O)[C@H](O)[C@H]2O[C@H]2C[C@](C)(N)[C@H](O)[C@H](C)O2)Oc2ccc(cc2Cl)[C@@H](O)[C@@H]2NC(=O)[C@H](NC(=O)[C@@H]3NC1=O)c1ccc(O)c(c1)-c1c(O)cc(O)cc1[C@@H](C(=O)NC1C3CC4CC(C3)CC1C4)NC2=O (stereo partly drawn): 1 to 2 µg/mL

// below: MIC requested for another compound
Exercise: Hello, I am looking for reported MIC with Enterococcus faecalis 848 (VRE, Van A) for CCCCOc1ccc(S(=O)(=O)NC(=O)C[C@@H]2NC(=O)[C@H](NC(=O)[C@@H](CC(C)C)NC)[C@H](O)c3ccc(c(Cl)c3)Oc3cc4cc(c3O[C@@H]3O[C@H](CN)[C@@H](O)[C@H](O)[C@H]3O)Oc3ccc(cc3Cl)[C@@H](O)[C@@H]3NC(=O)[C@H](NC(=O)[C@@H]4NC2=O)c2ccc(O)c(c2)-c2c(O)cc(O)cc2[C@@H](C(=O)NC2C4CC5CC(C4)CC2C5)NC3=O)cc1 (stereo partly drawn) . Could you help?
Solution: 0.5 to 1 µg/mL

---

Listed below: MIC values for each entry.
# System: Enterococcus faecalis 101 (ATCC 29212)
# methodDescription: MIC, broth microdilution, EFc 101
# Format: cell-based
# setupConditions: Enterococcus faecalis, ATCC29212; Table 2; in the presence of 0.002% Polysorbate 80; class symbols; read-out: MIC E FC 101

CN[C@H](CC(C)C)C(=O)N[C@H]1C(=O)N[C@@H](CC(=O)NC(=O)c2ccc(OCCCN)c(OCCCN)c2)C(=O)N[C@H]2C(=O)N[C@H]3C(=O)N[C@H](C(=O)N[C@H](C(=O)NC4C5CC6CC(C5)CC4C6)c4cc(O)cc(O)c4-c4cc3ccc4O)[C@H](O)c3ccc(c(Cl)c3)Oc3cc2cc(c3O[C@@H]2O[C@H](CO)[C@@H](O)[C@H](O)[C@H]2O)Oc2ccc(cc2Cl)[C@H]1O (some centres unmarked): 1 to 2 µg/mL

// below: MIC requested for another compound
Exercise: I'd like to know its MIC. The compound in question is CN[C@H](CC(C)C)C(=O)N[C@H]1C(=O)N[C@@H](CC(=O)NC(=O)c2ccc(OCCCN)c(OCCCN)c2)C(=O)N[C@H]2C(=O)N[C@H]3C(=O)N[C@H](C(=O)N[C@H](C(=O)NC4C5CC6CC(C5)CC4C6)c4cc(O)cc(O)c4-c4cc3ccc4O)[C@H](O)c3ccc(c(Cl)c3)Oc3cc2cc(c3O[C@@H]2O[C@H](CO)[C@@H](O)[C@H](O)[C@H]2O[C@H]2C[C@](C)(N)[C@H](O)[C@H](C)O2)Oc2ccc(cc2Cl)[C@H]1O (some centres unmarked)
Solution: 0.01 to 0.5 µg/mL
